Field: combination Emax. Provide a value for each of the molecules that follow.
System: ONS-76 (Other Solid Carcinomas)
Assay: combination Emax (second highest fraction inhibited in the dose matrix, 72 h); higher = more inhibition; extreme values may be limits of the assay

For reference, reported combination Emax for C[C@@H](c1ccc2nccn2c1)n1nnc2ncc(-c3cnn(C)c3)nc21 [Savolitinib] + Cc1c2c(nn1C)CSCc1cc(n(C)n1)CSc1cc(c3ccccc3c1)OCCCc1c(C(=O)O)n(C)c3c-2c(Cl)ccc13 [AZD5991] (first compound max 1 µM, 7x7, partner max 1 µM) stands at 0.153

For reference, reported combination Emax for Cc1c2c(nn1C)CSCc1cc(n(C)n1)CSc1cc(c3ccccc3c1)OCCCc1c(C(=O)O)n(C)c3c-2c(Cl)ccc13 [AZD5991] + C[C@@H]1COCCN1C2=NC(=NC(=C2)C3(CC3)[S@](=N)(=O)C)C4=C5C=CNC5=NC=C4 [AZD6738] (first compound max 1 µM, 7x7, partner max 10 µM) stands at 0.821

For reference, reported combination Emax for CN(CCO)CC[C@H](CSc1ccccc1)Nc1ccc(S(=O)(=O)NC(=O)c2ccc(N3CCC([C@@H](O)c4ccccc4-c4ccc(Cl)cc4)CC3)cc2)cc1S(=O)(=O)C(F)(F)F [AZD4320] + Cn1cnc2c(F)c(Nc3ccc(Br)cc3Cl)c(C(=O)NOCCO)cc21 [Selumetinib] (first compound max 1 µM, 7x7, partner max 3 µM) stands at 0.628

From here, focus on the item given below.
For reference, reported combination Emax for CC1(C)CCC(CN2CCN(c3ccc(C(=O)NS(=O)(=O)c4ccc(NCC5CCOCC5)c([N+](=O)[O-])c4)c(Oc4cnc5[nH]ccc5c4)c3)CC2)=C(c2ccc(Cl)cc2)C1 [Venetoclax] + Cn1cnc2c(F)c(Nc3ccc(Br)cc3Cl)c(C(=O)NOCCO)cc21 [Selumetinib] (first compound max 1 µM, 7x7, partner max 3 µM) stands at 0.536

###

Test system: NY (Osteosarcoma)
Test: combination Emax (second highest fraction inhibited in the dose matrix, 72 h); higher = more inhibition; extreme values may be limits of the assay
Value type: combination Emax
Numbers only.

For orientation, consider the following solved cases.
For reference, reported combination Emax for CC1(C)CCC(CN2CCN(c3ccc(C(=O)NS(=O)(=O)c4ccc(NCC5CCOCC5)c([N+](=O)[O-])c4)c(Oc4cnc5[nH]ccc5c4)c3)CC2)=C(c2ccc(Cl)cc2)C1 [Venetoclax] + C1CN(CCC1(C(=O)N[C@@H](CCO)C2=CC=C(C=C2)Cl)N)C3=NC=NC4=C3C=CN4 [Capivasertib] (first compound max 1 µM, 7x7, partner max 3 µM) stands at 0.583

For reference, reported combination Emax for Cc1c2c(nn1C)CSCc1cc(n(C)n1)CSc1cc(c3ccccc3c1)OCCCc1c(C(=O)O)n(C)c3c-2c(Cl)ccc13 [AZD5991] + C[C@@H]1COCCN1C2=NC(=NC(=C2)C3(CC3)[S@](=N)(=O)C)C4=C5C=CNC5=NC=C4 [AZD6738] (first compound max 1 µM, 7x7, partner max 10 µM) stands at 0.805

For reference, reported combination Emax for O=C(c1cc(Cc2n[nH]c(=O)c3ccccc23)ccc1F)N1CCN(C(=O)C2CC2)CC1 [Olaparib] + CC1(C)CCC(CN2CCN(c3ccc(C(=O)NS(=O)(=O)c4ccc(NCC5CCOCC5)c([N+](=O)[O-])c4)c(Oc4cnc5[nH]ccc5c4)c3)CC2)=C(c2ccc(Cl)cc2)C1 [Venetoclax] (first compound max 10 µM, 7x7, partner max 1 µM) stands at 0.188

Below are some molecules; for each one, tell me its combination Emax.
1. COc1cc2c(cc1OCCCCCOc1cc3c(cc1OC)C(=O)N1C=C(C)C[C@H]1C=N3)N=C[C@@H]1CC(C)=CN1C2=O [SG3199] + O=C(c1cc(Cc2n[nH]c(=O)c3ccccc23)ccc1F)N1CCN(C(=O)C2CC2)CC1 [Olaparib] (first compound max 0.001 µM, 7x7, partner max 10 µM)
2. Cc1c2c(nn1C)CSCc1cc(n(C)n1)CSc1cc(c3ccccc3c1)OCCCc1c(C(=O)O)n(C)c3c-2c(Cl)ccc13 [AZD5991] + CCN(CCO)CCCOc1ccc2c(Nc3cc(CC(=O)Nc4cccc(F)c4)[nH]n3)ncnc2c1 [AZD2811] (first compound max 1 µM, 7x7, partner max 1 µM)
3. Cc1cc2ncnn2cc1Nc1ncc2c(n1)n(C1CCOCC1)c(=O)n2C [AZD7648] + COc1cc([C@@H]2c3cc4c(cc3[C@@H](O[C@@H]3O[C@@H]5CO[C@@H](C)O[C@H]5[C@H](O)[C@H]3O)[C@H]3COC(=O)[C@H]23)OCO4)cc(OC)c1O [Etoposide] (first compound max 10 µM, 7x7, partner max 10 µM)
4. Cc1c2c(nn1C)CSCc1cc(n(C)n1)CSc1cc(c3ccccc3c1)OCCCc1c(C(=O)O)n(C)c3c-2c(Cl)ccc13 [AZD5991] + Cn1cnc2c(F)c(Nc3ccc(Br)cc3Cl)c(C(=O)NOCCO)cc21 [Selumetinib] (first compound max 1 µM, 7x7, partner max 3 µM)

Given back:
1: 0.0994; 2: 0.48; 3: 0.654; 4: 0.416
